molecular target: FGFR3 (UniProt P22607); experiment: phosphorylation enrichment, bacterial display (enrichment ratio); higher = better substrate or ligand; peptides without Tyr show the background;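 also: 11-residue human phosphosite peptides and single-mutation variants displayed on the E. coli surface, counted by deep sequencing, each peptide's frequency after selection divided by its frequency in the unselected input library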;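 also: frequency after pTyr selection over input frequency; kinase dosed for 20-30% of maximal phosphorylation in three min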
Sequence (P22607 whole entry, looked up): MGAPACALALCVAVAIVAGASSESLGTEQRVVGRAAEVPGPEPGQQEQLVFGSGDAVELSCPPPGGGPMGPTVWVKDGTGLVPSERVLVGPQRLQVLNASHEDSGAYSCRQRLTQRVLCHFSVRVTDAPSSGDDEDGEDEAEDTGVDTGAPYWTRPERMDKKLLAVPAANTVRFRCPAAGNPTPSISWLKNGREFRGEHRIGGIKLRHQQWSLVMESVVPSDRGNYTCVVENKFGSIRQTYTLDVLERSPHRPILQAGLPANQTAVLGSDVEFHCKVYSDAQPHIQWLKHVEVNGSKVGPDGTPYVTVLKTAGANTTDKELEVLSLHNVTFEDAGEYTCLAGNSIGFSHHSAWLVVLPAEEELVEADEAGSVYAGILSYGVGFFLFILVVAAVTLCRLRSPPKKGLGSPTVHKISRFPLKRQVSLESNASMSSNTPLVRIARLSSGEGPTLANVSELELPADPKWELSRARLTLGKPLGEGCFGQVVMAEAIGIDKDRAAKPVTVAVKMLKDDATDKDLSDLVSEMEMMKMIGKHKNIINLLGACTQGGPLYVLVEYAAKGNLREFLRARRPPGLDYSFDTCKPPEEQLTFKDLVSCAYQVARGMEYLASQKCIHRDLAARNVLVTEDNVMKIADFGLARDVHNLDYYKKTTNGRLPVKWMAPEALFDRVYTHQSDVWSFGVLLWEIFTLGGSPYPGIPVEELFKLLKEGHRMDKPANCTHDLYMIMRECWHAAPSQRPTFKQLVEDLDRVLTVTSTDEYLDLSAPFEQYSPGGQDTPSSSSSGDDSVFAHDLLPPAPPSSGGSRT

{"Chain sequence": "VTPSEYLEIVR [TMEM130_Y412_E407V]", "Experimental system": "FGFR3 (UniProt P22607)", "phosphorylation enrichment": 0.736}
{"Chain sequence": "IVAREYFSKAD [CAMK2B_Y107_E110K_YF]", "Experimental system": "FGFR3 (UniProt P22607)", "phosphorylation enrichment": 0.402}
{"Chain sequence": "RVGNMYMRGLS [ABCG8_Y209_V210M]", "Experimental system": "FGFR3 (UniProt P22607)", "phosphorylation enrichment": 0.596}
{"Chain sequence": "NEKNIYRVPLM [BMPR2_Y247]", "Experimental system": "FGFR3 (UniProt P22607)", "phosphorylation enrichment": 0.501}
{"Chain sequence": "HSGVSYFINLC [IGF2R_Y2024_N2020S_YF]", "Experimental system": "FGFR3 (UniProt P22607)", "phosphorylation enrichment": 0.835}
{"Chain sequence": "LQKNIYSEELR [LMNA_Y211_F206L]", "Experimental system": "FGFR3 (UniProt P22607)", "phosphorylation enrichment": 1.37}
{"Chain sequence": "PLSGEYFTLQI [TP53_Y327_D324S]", "Experimental system": "FGFR3 (UniProt P22607)", "phosphorylation enrichment": 9.65}
{"Chain sequence": "AVDDKYSRREE [SART1_Y685_I681V]", "Experimental system": "FGFR3 (UniProt P22607)", "phosphorylation enrichment": 0.581}
{"Chain sequence": "CDKEYYSVHNK [MET_Y1235_Y1230C]", "Experimental system": "FGFR3 (UniProt P22607)", "phosphorylation enrichment": 2.09}
{"Chain sequence": "TKQLTYEEQDL [PIK3C3_Y310]", "Experimental system": "FGFR3 (UniProt P22607)", "phosphorylation enrichment": 0.791}
{"Chain sequence": "VVKTVYSLQPS [KNSTRN_Y87_P92S]", "Experimental system": "FGFR3 (UniProt P22607)", "phosphorylation enrichment": 0.561}
{"Chain sequence": "PFSEPYADFGG [APBA1_Y187_YF]", "Experimental system": "FGFR3 (UniProt P22607)", "phosphorylation enrichment": 0.957}
{"Chain sequence": "PAVGIYNGNIN [CDCP1_Y707_D709G]", "Experimental system": "FGFR3 (UniProt P22607)", "phosphorylation enrichment": 0.884}
{"Chain sequence": "SVTCTYSLALN [TP53_Y126_P128L]", "Experimental system": "FGFR3 (UniProt P22607)", "phosphorylation enrichment": 0.802}
{"Chain sequence": "FDGKDYIALNE [HLA-A_Y147_YF]", "Experimental system": "FGFR3 (UniProt P22607)", "phosphorylation enrichment": 0.68}
{"Chain sequence": "YDYKKYGKGLR [ZNF445_Y433]", "Experimental system": "FGFR3 (UniProt P22607)", "phosphorylation enrichment": 0.536}
{"Chain sequence": "ANNPLYKEATP [ITGB3_Y773_S778P]", "Experimental system": "FGFR3 (UniProt P22607)", "phosphorylation enrichment": 0.479}
{"Chain sequence": "MEFLPYGSLRD [JAK2_Y934_YF]", "Experimental system": "FGFR3 (UniProt P22607)", "phosphorylation enrichment": 0.615}
